Taken from PubChem BioAssay.

test: small-molecule microarray binders of probe aLefty2, primary screen, biochemical, biotinylated probe, 635/667 nm fluorescence (AID 1094); settings: higher = more signal;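 also: score merges spot fluorescence near 667 nm with spot signal-to-noise ratio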
Entries and their measured composite z-score follow.

| Molecule | composite z-score |
| --- | --- |
| O=C1OCCC/C=C\[C@H]2OC34C=CCN(c5ccc6ccccc6c5)C(=O)[C@H]3N(CCCO)C(=O)[C@@H]4C12 (stereo partly drawn) | -0.091 |
| O=C1C2C=CC(C(O)c3cccc(O)c3)N(Nc3ccccc3)C2C(=O)N1c1ccccc1 (stereo not drawn) | 0.005 |
| COc1cc(NN2C(C(O)C3CCCCC3)C=CC3C(=O)N(c4ccccc4)C(=O)C32)cc(OC)c1OC (stereo not drawn) | 0.167 |
